# system: T1, human TfR extracellular domain with N-terminal His tag (human, UniProt P02786 89-760)
# T1 construct: Biotinylated in some assays; also called huTfR; HuTfR
# T1 sequence (P02786 89-760 G142S): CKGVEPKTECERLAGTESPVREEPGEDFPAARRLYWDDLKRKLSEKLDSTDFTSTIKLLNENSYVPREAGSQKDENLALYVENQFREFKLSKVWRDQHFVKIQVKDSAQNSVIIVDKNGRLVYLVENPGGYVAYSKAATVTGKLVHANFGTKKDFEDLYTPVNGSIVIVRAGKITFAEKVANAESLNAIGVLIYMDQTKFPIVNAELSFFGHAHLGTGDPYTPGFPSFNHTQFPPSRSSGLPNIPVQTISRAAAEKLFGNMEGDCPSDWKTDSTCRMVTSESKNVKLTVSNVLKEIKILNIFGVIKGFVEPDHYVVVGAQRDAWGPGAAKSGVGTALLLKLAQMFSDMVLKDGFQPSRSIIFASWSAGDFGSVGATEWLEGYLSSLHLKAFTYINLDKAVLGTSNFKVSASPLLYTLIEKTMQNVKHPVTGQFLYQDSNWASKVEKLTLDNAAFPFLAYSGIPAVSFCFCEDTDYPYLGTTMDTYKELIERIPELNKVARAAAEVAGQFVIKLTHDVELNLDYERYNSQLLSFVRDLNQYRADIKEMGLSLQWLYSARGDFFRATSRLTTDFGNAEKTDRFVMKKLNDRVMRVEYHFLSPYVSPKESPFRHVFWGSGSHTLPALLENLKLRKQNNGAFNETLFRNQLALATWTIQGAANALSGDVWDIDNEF
# protocol: ELISA
measurement_type: binding result

binder	observed_measurement
16G5 (antibody, V domains shown, Mouse hybridoma antibody; also called clone 16G5) VH: QVQLQQPGAELVRPGAAVKLSCKASGYTFTSYWMHWVKQRPGQGLEWIGEINPTNGRTNYNENFKSKATLTVDKSSSTAYMQLSSLTSEDSAVYYCARGTRAYHFWGQGTSVTVSS VL: DIQLTQTPASLSVSVGETVTITCRASENIYSNLAWYQQKQGKSPQLLVYAATDLADGVPSRFRGSGSGTQYSLKINSLQSEDFGSYYCQHFWGTPLTFGAGTKLELI	binds
15D2 (antibody, V domains shown, Mouse hybridoma antibody; also called clone 15D2) VH: QVQLQQSGPELVRPGVSVKISCKGSGYTVTDYAMHWVKQSHAKSLEWIGVISFYSGKTNYNQKFMGKATMTVDKSSSTAYMELARLTSEDSAIYYCARGLSGNYVMDYWGQGTSVTVSS VL: DIVLTQSPASLAVSLGQRATISCRASESVDSYGNSFMHWYQQKPGQPPKLLIYRASNLESGIPARFSGSGSRTDFTLTINPVEADDVATYYCQQSNEGPPTFGGGTKLEIK	binds
13C3 (antibody, V domains shown, Mouse hybridoma antibody; also called clone 13C3) VH: QVQLQQPGAELVKPGASVKLSCKASGYTFASYWMHWVKQRPGQGLEWIGEINPINGRTNYSEKFKKKATLTVDKSSSTAYMQLSSLTSEDSAVYYCARGTRAYHYWGQGTSVTVSS VL: DIQMTQSPASLSVSVGETVTITCRASDNIYSNLAWYQQKQGKSPQLLVYAATNLADGVPSRFSGSGSGTQYSLKINSLQSEDFGSYYCQHFWGTPLMFGSGTKLELK	binds
4C2 (antibody, V domains shown, Mouse hybridoma antibody; also called clone 4C2) VH: QVQLQQPGSELVRPGASVKLSCKASGYTFTSYWMHWVKQRHGQGLEWIGNIYPGSGSTKYDEKFKSKGTLTVDTSSSTAYMHLSSLTSEDSAVYYCTRGGYDSRAWFAHWGQGTLVTVSA VL: DIVLTQSPASLAVSLGQRATISCRARQSVSTSSYSFMHWYQQKPGQPPKLLIKYASIQESGVPARFSGSGSGTDFTLNILPVEEEDTATYYCQHTWEIPFTFGSGTNLEIK	binds

Hey, just so you know, these numbers are from patent US20180057604A1.
